These measurements were taken from patent US12077503B2.

test system: giant foxtail (Setaria faberii); experiment: Test A preemergence; type: in vivo; settings: Setaria faberi, pre-emergence, 240 h, 500 g ai/ha, preemergence; 0 to 100 scale (0 no effect, 100 complete control); read-out: Plant response rating, Foxtail, Giant
Readout Name: pest or weed control at 500 g/ha

Solved cases below.
O=C1NC[C@H](c2cncc(C(F)(F)F)c2)[C@H]1C(=O)Nc1cccc(F)c1F	90%
CO[C@]1(C(=O)Nc2cccc(F)c2F)C(=O)N(C)C[C@@H]1c1ccc(C(F)(F)F)cc1 (racemic)	80%

(Q) Please respond with reported pest or weed control at 500 g/ha (system giant foxtail (Setaria faberii)) for O=C1NC[C@H](c2cccc(C(F)(F)F)n2)[C@H]1C(=O)Nc1cccc(F)c1F .
(A) 90%

(Q) Using giant foxtail (Setaria faberii) as the test system, report measured pest or weed control at 500 g/ha of CN1C[C@H](c2ccc(C(F)F)cc2)[C@@H](C(=O)Nc2cccc(F)c2F)C1=O .
(A) 100%

(Q) Give pest or weed control at 500 g/ha for CN1CC[C@H](c2cccc(C(F)(F)F)c2)[C@@H](C(=O)Nc2cccc(F)c2F)C1=O tested on giant foxtail (Setaria faberii).
(A) 90%

----------
Parameter Plant response rating, Galium: see the listing below.
tested on: Galium (catchweed bedstraw, Galium aparine); experiment: Test C preemergence; assay type: in vivo; conditions: 125 g ai/ha, scale 0 to 100, 0 no effect, 100 complete control
Respond with the number and no other words.

CN1CC(c2cccc(OC(F)F)c2)C(C(=O)Nc2cccc(F)c2F)C1=O (stereo not drawn)	85
CN1C[C@H](c2ccc(F)c(F)c2)[C@@H](C(=O)Nc2ccccc2F)C1=O	40
O=C1NCC(c2cc(F)cc(C(F)(F)F)c2)C1C(=O)Nc1cccc(F)c1F (stereo not drawn)	85
CN1CC(c2cc(F)cc(F)c2)C(C(=O)Nc2ccc(F)c(F)c2F)C1=O (stereo not drawn)	90
O=C1NCC(c2ccc3c(c2)OC(F)(F)O3)C1C(=O)Nc1cccc(F)c1F (stereo not drawn)	80

(Q) Look up and report measured Plant response rating, Galium for this entry: CN1CC(c2ccc(F)c(F)c2)C(C(=O)Nc2ccccc2C(F)(F)F)C1=O (stereo not drawn)
(A) 90

----------
Below: a set of entries, each annotated with reported Plant response rating, Blackgrass.
test system: blackgrass (Alopecurus myosuroides); test: Test A postemergence; format: in vivo; settings: 500 g ai/ha, postemergence; 0 to 100 scale, 0 no effect, 100 complete control
No unit in the answer, please; the number alone is enough.

A selection of reference data follows.
CN1CC(c2cccc(OC(F)(F)C(F)F)c2)C(C(=O)Nc2ccccc2C(F)(F)F)C1=O (stereo not drawn) [Compound 431]	60
COc1cccc(NC(=O)C2C(=O)NCC2c2ccc(F)c(F)c2)c1F (stereo not drawn) [Compound 416]	0

(Q) Please give measured Plant response rating, Blackgrass of the following entry: Cc1cc(C2CN(C)C(=O)C2C(=O)Nc2ccccc2C(F)(F)F)ccc1F (stereo not drawn) [Compound 406]
(A) 50

----------
// pest or weed control at 31 g/ha lookup, one value per entry
tested on: ryegrass, Italian (Italian ryegrass, Lolium multiflorum); experiment: Test A preemergence; format: in vivo; conditions: Lolium multiflorum, pre-emergence, 240 h, 31 g ai/ha, Preemergence; 0 to 100 scale where 0 is no effect and 100 is complete control; read-out: Ryegrass, Italian plant response rating

The examples below pair each entry with its known result.
O=C(Nc1cccc(F)c1F)[C@H]1C(=O)N(O)CC[C@@H]1c1ccccc1 [Compound 1007]	0%
CN1C[C@H](c2csc3c2CCCC3)[C@@H](C(=O)Nc2ccccc2S(C)(=O)=O)C1=O [Compound 1080]	0%
CC(O)c1ccccc1NC(=O)C1C(=O)N(C)CC1c1cccc(C(F)(F)F)c1 (centres unmarked) [Compound 1147]	0%

(Q) Quote pest or weed control at 31 g/ha reported for CSc1ccccc1NC(=O)[C@H]1C(=O)N(C)C[C@@H]1c1ccc(C)cc1 [Compound 1187] please.
(A) 0%

(Q) Specify pest or weed control at 31 g/ha for O=C1NC[C@H](c2csc3c2CCOC3)[C@H]1C(=O)Nc1cccc(F)c1F [Compound 1279] and stop.
(A) 0%

(Q) Please look at this compound and report its pest or weed control at 31 g/ha: CN1CC(c2cccc(C(F)(F)F)c2)C(C(=O)Nc2ccccc2C(C)(C)O)C1=O (centres unmarked) [Compound 1146]
(A) 0%

(Q) State, in one line, measured pest or weed control at 31 g/ha of CN1C[C@H](c2cc(Cl)cc(Cl)c2)[C@@H](C(=O)Nc2ccccc2F)C1=O [Compound 1269]
(A) 0%

(Q) Please give the documented pest or weed control at 31 g/ha of CN1C[C@H](c2cccc(C#N)c2)[C@@H](C(=O)Nc2ccccc2F)C1=O [Compound 1285]
(A) 0%

----------
test system: Galium (catchweed bedstraw, Galium aparine); assay: Test A postemergence; type: in vivo; conditions: 125 g ai/ha, postemergence; visual injury rating on 0 to 100 scale (0 no effect, 100 complete control), approx. 10 d
// Galium plant response rating lookup, one value per entry
In your answer, state the number alone without any accompanying words.

Consider the reported Galium plant response rating for these compounds:
Cc1cccc(NC(=O)C2C(=O)NCC2c2ccc(F)c(F)c2)c1F (stereo not shown)	0
CN1CC(c2ccc(Cl)cc2)C(C(=O)Nc2ccc(F)cc2F)C1=O (stereo not shown)	60
O=C(Nc1ccccc1F)C1C(=O)N(c2ccccc2)CC1c1cccc(C(F)(F)F)c1 (stereo not shown)	0

(Q) Supply recorded Galium plant response rating for O=C1NCC(c2ccc(C(F)(F)F)c(F)c2)C1C(=O)Nc1ccccc1F (racemic) here.
(A) 50

----------
system: barnyardgrass (Echinochloa crus-galli); assay: Test B flooded paddy test; format: in vivo; settings: Echinochloa crus-galli, Flood, 250 g ai/ha; scale of 0 to 100 where 0 is no effect and 100 is complete control; read-out: Barnyardgrass plant response rating
Collected pest or weed control at 250 g/ha values appear next to each entry.
State the answer as a number, implicitly in %.

CSc1ccccc1NC(=O)[C@H]1C(=O)N(C)C[C@@H]1c1cccc(OC(F)(F)C(F)F)c1	0
O=C1NCC(c2cccc(I)c2)C1C(=O)Nc1ccccc1F (stereo not drawn)	30
CSc1ccccc1NC(=O)[C@H]1C(=O)N(C)C[C@@H]1c1ccc(C)c(F)c1	30
CN1C[C@H](c2ccc(C(F)(F)F)cc2)[C@@H](C(=O)Nc2cccc(F)c2Br)C1=O	0
CSc1ccccc1NC(=O)[C@H]1C(=O)N(C)C[C@@H]1c1ccc(F)c(Br)c1	50
O=C1NC[C@H](c2csc3ccccc23)[C@H]1C(=O)Nc1cccc(F)c1F	40

(Q) Provide measured pest or weed control at 250 g/ha value, entry: Cc1cc(F)cc([C@H]2CN(C)C(=O)[C@@H]2C(=O)Nc2cccc(F)c2C)c1
(A) 90

(Q) Supply reported pest or weed control at 250 g/ha belonging to this compound: COc1ccc([C@H]2CNC(=O)[C@@H]2C(=O)Nc2ccccc2S(C)(=O)=O)cc1F
(A) 0

(Q) Identify pest or weed control at 250 g/ha associated with the compound Cc1cc(C)cc([C@H]2CN(C)C(=O)[C@@H]2C(=O)Nc2ccccc2F)c1
(A) 70

(Q) Annotate the compound CCc1cc(CC)cc([C@H]2CN(C)C(=O)[C@@H]2C(=O)Nc2cccc(F)c2F)c1 with its measured pest or weed control at 250 g/ha.
(A) 40

(Q) Tell us which pest or weed control at 250 g/ha value is on record for COc1cc([C@H]2CN(C)C(=O)[C@@H]2C(=O)Nc2ccccc2SC)ccc1C(F)(F)F
(A) 0

(Q) Given the compound Cc1cc(C)cc([C@H]2CNC(=O)[C@@H]2C(=O)Nc2ccccc2C(F)(F)F)c1 , write its reported pest or weed control at 250 g/ha.
(A) 40

----------
test system: ivy-leaved morning glory (Ipomoea hederacea); assay: Test G Post-Emergence Protocol; format: in vivo; settings: Ipomoea, post-emergence, 312 h, 62.5 g ai/ha, evaluated after 13 days, 100=total damage to plant, 0=no damage to plant, read-out: Morningglory, Ivy-leaved damage rating
# pest or weed control at 62.5 g/ha annotations
Numbers only here, please. The scale is %.

Known results for compounds:
CN1C[C@H](c2ccc(F)c(C#N)c2)[C@@H](C(=O)Nc2ccccc2S(C)(=O)=O)C1=O (racemic)	0
C=C(C)c1ccccc1NC(=O)[C@H]1C(=O)N(C)C[C@@H]1c1cccc(C(F)(F)F)c1 (racemic)	0
CN1C[C@H](c2ccnc(C(C)(C)C)n2)[C@@H](C(=O)Nc2cccc(F)c2F)C1=O (racemic)	0
Cc1nc(Cl)ccc1NC(=O)[C@H]1C(=O)N(C)C[C@@H]1c1ccc(C(F)(F)F)cc1 (racemic)	0
Cc1c(F)cccc1NC(=O)[C@@H]1C(=O)N(C)C[C@H]1c1ccc2nonc2c1 (racemic)	10

(Q) Quick one: give measured pest or weed control at 62.5 g/ha for CC(C)S(=O)(=O)c1ccccc1NC(=O)[C@H]1C(=O)N(C)C[C@@H]1c1ccc(C(F)(F)F)cc1 (racemic)
(A) 0

(Q) Supply reported pest or weed control at 62.5 g/ha belonging to this compound: Cc1cc(C2CN(C)C(=O)C2C(=O)Nc2cccc(F)c2F)cc(C(F)(F)F)c1 (stereo not shown)
(A) 70
